pKi: −log10 of the molar value.
Hi, quick share: literature pKi data for Carbonic anhydrase 4 (Bos taurus, UniProt Q95323), several sources combined.
Classify as follows. Reported pKi greater than or equal to 7: class 1. Reported pKi below: class 0.

Recorded results for 3 compounds are shown here.
- NCC(=O)NCC(=O)NNc1ccc(S(N)(=O)=O)cc1: class 0
- NS(=O)(=O)c1ccc(COC(=O)CN(CCOCCOCCN(CC(=O)O)CC(=O)O)CC(=O)O)cc1: class 0
- NS(=O)(=O)c1cccc(NC(=O)CN(CC(=O)O)CC(=O)O)c1: class 0

Next, consider the following compound.
Is pKi for CCC(C)C(/N=C(\S)Nc1ccc(S(N)(=O)=O)cc1)C(=O)O (configuration not stated) at or above 7?
class 1

---

Hi, quick share: literature pKi data for Carbonic anhydrase 4 (Bos taurus, UniProt Q95323), several sources combined.
pKi: −log10 of the molar value.
Classify as follows. Reported pKi greater than or equal to 7: fulfilled. Reported pKi below: not fulfilled.

Recorded results for 4 compounds are shown here.
- NS(=O)(=O)c1ccc(CC/N=C/c2ccc[nH]2)cc1: fulfilled
- NS(=O)(=O)c1cccc(NC(=O)CN(CCOCCOCCN(CC(=O)O)CC(=O)Nc2cccc(S(N)(=O)=O)c2)CC(=O)O)c1: not fulfilled
- NCCCC(=O)Nc1ccc2nc(S(N)(=O)=O)sc2c1: fulfilled
- NCC(=O)Nc1ccc(S(N)(=O)=O)cc1F: fulfilled

Next, consider the following compound.
Is pKi for "CCCC(CCC)C(=O)Nc1cccc(S(N)(=O)=O)c1" at or above 7?
not fulfilled

---

Biological target: Carbonic anhydrase 4 (Bos taurus, UniProt Q95323)
Sequence (Q95323 whole entry): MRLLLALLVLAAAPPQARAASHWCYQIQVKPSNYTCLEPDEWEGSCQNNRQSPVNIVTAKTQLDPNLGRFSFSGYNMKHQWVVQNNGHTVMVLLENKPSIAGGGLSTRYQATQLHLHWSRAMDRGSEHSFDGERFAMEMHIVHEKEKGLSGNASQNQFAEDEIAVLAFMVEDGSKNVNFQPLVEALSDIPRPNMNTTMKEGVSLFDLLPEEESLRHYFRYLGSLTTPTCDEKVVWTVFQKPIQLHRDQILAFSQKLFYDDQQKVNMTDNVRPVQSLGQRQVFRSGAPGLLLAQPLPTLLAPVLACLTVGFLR
Hi, quick share: literature Ki data for Carbonic anhydrase 4 (Bos taurus, UniProt Q95323), several sources combined.
Kindly provide the numeric value in nM only, without the unit symbol.

Take a look at these entries with their results.
- NS(=O)(=O)C1N=NC(NC(=O)CN(CCN(CCN(CC(=O)O)CC(=O)NC2N=NC(S(N)(=O)=O)S2)CC(=O)O)CC(=O)O)S1 (centres undefined): 7
- NS(=O)(=O)c1ccc(N/C(S)=N\CC(=O)O)cc1: 39
- NS(=O)(=O)c1ccc(C(=O)c2cccc(C(=O)O)n2)cc1: 170

Entry NS(=O)(=O)c1ccc(NC(=S)NC(CCC(=O)O)C(=O)O)cc1 (centres undefined) : reported Ki = ?
19

---

Hi, quick share: literature Ki data for UniProt:Q95323, several sources combined.
Kindly provide the numeric value in nM only, without the unit symbol.

Take a look at these entries with their results.
* CCc1cc(-c2ccccc2)cc(CC)[n+]1CC(=O)Oc1ccc2nc(S(N)(=O)=O)sc2c1 | 27
* CC(C)c1cc(-c2ccccc2)cc(C(C)C)[n+]1CC(=O)Nc1ccc(S(=O)(=O)Nc2nnc(S(N)(=O)=O)s2)cc1 | 10
* C[C@H](CCC(=O)NCc1ccc(S(N)(=O)=O)cc1)[C@H]1CC[C@H]2[C@@H]3[C@H](O)C[C@@H]4C[C@H](O)CC[C@]4(C)[C@H]3CC[C@]12C | 244

Please look at the following compound next.
Entry "Cn1nc(S(N)(=O)=O)s/c1=N/C(=O)CN(CC(=O)O)CC(=O)O" : reported Ki = ?
106
